Attribution: ChEMBL document CHEMBL1201862

Tested on: NCI-H460
Test: NCI tumour cell line growth inhibition, 48 h
Active and inactive are the calls of the source. Rule as the data show it: active = GI50 up to about 1.1 µM and inactive = higher.
READOUT_LABEL: GI50

Worked cases, answers included:
> print(dat)
                                   compound       endpoint.value
1  O=[N+]([O-])c1ccc(/C=C\c2ccc3c(c2)OCO3)c([N+](=O)[O-])c1   19.5 µM (inactive)
2  C[C@H](NS(=O)(=O)c1ccc(NC(=O)c2ccccc2)cc1)C(=O)O  > 100 µM (inactive)
3  Nc1ccc(Oc2ccc(C3(c4ccc(Oc5ccc(N)c(O)c5)cc4)C4CC5C6CC7CC5C3C(C7)C6C4)cc2)cc1O   2.41 µM (inactive)
4  COc1nc(N=P(c2ccccc2)(c2ccccc2)c2ccccc2)cc(=O)n1C  > 100 µM (inactive)
5  COc1cc(S(=O)(=O)Nc2nc(-c3ccc(N4C(=O)/C(=C/c5ccccc5[N+](=O)[O-])N=C4c4ccccc4)cc3)cs2)ccc1Cl  > 100 µM (inactive)
6  COc1cc2nc(Cl)nc(NS(=O)(=O)c3cc4ccccc4s3)c2cc1OC   32.5 µM (inactive)
7  O=C(O)C(C1NCCS1)N1Cc2ccccc2C1 (stereo not given)  > 100 µM (inactive)
8  CCC12CC[C@H](C#N)N3CCc4c(n(c5ccccc45)C(=O)C1)C32 (stereo not given in full)   13.3 µM (inactive)
9  N=c1n(C(=O)N2CCCC2)c2cc(Cl)ccc2n1C1=NCCN1  > 100 µM (inactive)

Here is the next item to consider.
Ask: Please look up its GI50: Cc1nn(C(=O)c2ccncc2)c2c1C(c1cccc([N+](=O)[O-])c1)SC(=N)N2 (stereo not given)
Result: > 10 µM (inactive)

----------
System: SNB-75
Test: NCI tumour cell line growth inhibition, 48 h
Active and inactive are the calls of the source. Cut-off read from the data, not from the text of the source: active = GI50 up to about 1.1 µM and inactive = higher.
READOUT_LABEL: GI50

COMPOUND	GI50
Cc1cccc(N2C(=O)C(=O)C(c3nc4ccccc4s3)C(=O)C2=O)c1C	> 100 µM (inactive)

Ask: Please look up its GI50: "CCOCc1nc2c(OC)c(-c3nc4ccc(N5CCN(C)CC5)cc4[nH]3)cc(OC)c2[nH]1"
Result: 28.9 µM (inactive)

Ask: Please look up its GI50: Clc1ccccc1C1N2CCCCC2[C@@H]2c3[nH]c4ccccc4c3CCN12 (some centres undefined)
Result: 32.4 µM (inactive)

Ask: Please look up its GI50: "CCOC(=O)c1c(NCc2ccccc2)n(-c2ccccc2)c(=S)n(-c2ccccc2)c1=O"
Result: 33.7 µM (inactive)

Ask: Please look up its GI50: "Cn1c(=O)c2nc(SCCN3CCOCC3)[nH]c2n(C)c1=S"
Result: > 100 µM (inactive)

Ask: Please look up its GI50: "C[C@H](OC(=O)/C=C/c1ccc(O)c(O)c1)[C@H](C)OC(=O)/C=C/c1ccc(O)c(O)c1"
Result: 15.7 µM (inactive)

Ask: Please look up its GI50: "O=S(=O)(N1CCCCN(S(=O)(=O)C(F)(F)F)CCCN(S(=O)(=O)C(F)(F)F)CCCCN(S(=O)(=O)C(F)(F)F)CCCN(S(=O)(=O)C(F)(F)F)CCCCN(S(=O)(=O)C(F)(F)F)CCCN(S(=O)(=O)C(F)(F)F)CCCCN(S(=O)(=O)C(F)(F)F)CCC1)C(F)(F)F"
Result: > 31.6 µM (inactive)

Ask: Please look up its GI50: "O=C(OCc1ccccc1)N1CCNCCNCCN(C(=O)OCc2ccccc2)CCNCC1"
Result: 21.5 µM (inactive)

Ask: Please look up its GI50: "Cn1ncc2ccc3[nH]c4ccccc4c(=O)c3c21"
Result: 19.9 µM (inactive)

Ask: Please look up its GI50: "COc1ccc(-c2cs/c(=N\c3ccccc3)n2CCCN(C)C)cc1"
Result: 4.44 µM (inactive)

Ask: Please look up its GI50: CN(C)CC1CCCC/C1=N\OC(=O)c1ccccc1 (centres undefined)
Result: > 100 µM (inactive)

Ask: Please look up its GI50: COc1cc(C(C)c2cc3c(cc2OCCOCCOc2cc4c(cc2C(C)c2cc(OC)c(OC)c(OC)c2)OCO4)OCO3)cc(OC)c1OC (centres undefined)
Result: 19.1 µM (inactive)

Ask: Please look up its GI50: "COc1cccc(/C(CC(O)(C(F)(F)F)C(F)(F)F)=N\N(C)C)c1"
Result: > 100 µM (inactive)

Ask: Please look up its GI50: CC1(C)C2CCC1C(=O)[C@@]1(C=CC(=O)CC1)C2 (some centres undefined)
Result: 61.1 µM (inactive)

Ask: Please look up its GI50: OC1(c2ccc(Cl)cc2)c2ccccc2-c2nc3ccccc3n21 (centres undefined)
Result: > 100 µM (inactive)

----------
Entries and their GI50 values follow.
Test system: NCI-H226
Experiment: NCI tumour cell line growth inhibition, 48 h
The source made the active and inactive calls. Cut-off read from the data, not from the text of the source: active = GI50 up to about 1.1 µM and inactive = higher.

MOLECULE	TARGET_OR_TEST_SYSTEM	GI50
CC(C)=NOC(=O)OC[C@H]1O[C@@H](n2cnc3c(N)ncnc32)C(O)C1O (stereo not given in full)	NCI-H226	> 100 µM (inactive)
CCOC(=O)C[C@@]12CCCNC1(C)CCc1ccccc12 (stereo not given in full)	NCI-H226	> 100 µM (inactive)
CC1(C)C2CCC(O)(C2)C1N (stereo not given)	NCI-H226	> 100 µM (inactive)
COC(=O)[C@]1(c2cc3ccccc3n2S(=O)(=O)c2ccccc2)CC2CN(C(C)=O)C1CC2=O (stereo not given in full)	NCI-H226	2.17 µM (inactive)
CCCCCCc1cc2cc(-c3csc(CC#N)n3)c(=O)oc2cc1O	NCI-H226	22.9 µM (inactive)
Oc1ccc(-c2nc3cc(C(F)(F)F)ccc3n2CC2CCCN3CCCCC23)cc1 (stereo not given)	NCI-H226	16.3 µM (inactive)
CCOC(=O)c1c(NCc2ccccc2)n(-c2ccccc2)c(=S)n(-c2ccccc2)c1=O	NCI-H226	> 100 µM (inactive)
CC(C)C(=O)Cc1ccc2ccccc2n1	NCI-H226	> 100 µM (inactive)
COc1ccc(-c2cs/c(=N\c3ccccc3)n2CCCN(C)C)cc1	NCI-H226	18.2 µM (inactive)
CCN(CC)CC(=O)O[C@]1(CC)C(=O)OCc2c1cc1n(c2=O)Cc2cc3ccccc3nc2-1	NCI-H226	0.0209 µM (active)

Ask: Please look up its GI50: O=C1C(Cl)C2(CC(/C=C/c3cccs3)=NN2c2cccc(S(=O)(=O)O)c2)N1c1nc2ccccc2s1 (stereo not given)
Result: 27.9 µM (inactive)

Ask: Please look up its GI50: ClC/C=C/COC1CCCCO1 (stereo not given)
Result: > 100 µM (inactive)

Ask: Please look up its GI50: "CCOC(=O)c1cn(CC)c2ccc3c(c2c1=O)S(=O)(=O)C=C3"
Result: 63.7 µM (inactive)

Ask: Please look up its GI50: CC(C)C1=C(O)C(=O)C2=C(C1=O)C(OC=O)C(O)C1C(C)(C)CCCC21C (stereo not given)
Result: 5.08 µM (inactive)

Ask: Please look up its GI50: "CN(C)/C=C/C(=O)c1cccc(C(=O)/C=C/N(C)C)n1"
Result: > 100 µM (inactive)

----------
Tested on: SK-OV-3
Test: NCI tumour cell line growth inhibition, 48 h
Active and inactive are the calls of the source. Cut-off read from the data, not from the text of the source: active = GI50 up to about 1.1 µM and inactive = higher.
READOUT_LABEL: GI50

Worked cases, answers included:
> print(dat)
                                   compound      endpoint.value
1  CC(C)(Oc1ccc(Cl)cc1)C(=O)N(C(=O)N1CCC(c2ccccc2)CC1)c1ccccc1  99.8 µM (inactive)
2      c1ccc2c(c1)SC1=Nc3sc4ccccc4[n+]3CN12  17.2 µM (inactive)

Here is the next item to consider.
Ask: Please look up its GI50: "N=C(N)NS(=O)(=O)c1ccc(NNc2c3ccccc3nc3ccccc23)cc1"
Result: 11.1 µM (inactive)

----------
Tested on: SK-OV-3
Test: NCI tumour cell line growth inhibition, 48 h
Active and inactive are the calls of the source. Cut-off read from the data, not from the text of the source: active = GI50 up to about 1.1 µM and inactive = higher.
Would you mind answering with one of these outcomes? active, inactive

Previously resolved entries follow.
> print(dat)
                                   molecule  class.name
1  COc1ccc(C2CC(c3ccccc3)=Nc3c(-c4ccccc4)nnn32)cc1 (stereo unspecified)    inactive
2       C/C(=N/NC(=S)Nc1cccc(Cl)c1)c1ccccn1      active
3  N#CCN1C(=O)c2cc([N+](=O)[O-])cc3cc([N+](=O)[O-])cc(c23)C1=O    inactive
4       CCSc1nc(=S)n(-c2ccccc2)c(C)c1C(C)=O    inactive
5          Cn1/c(=N\c2ccc(Cl)cc2)sc2ccccc21    inactive

Ask: Tell me the recorded outcome of this test for Clc1cc2nnn(C3CCCCO3)c2cc1Cl (stereo unspecified) .
Result: inactive

Ask: Tell me the recorded outcome of this test for "O=C(CBr)NCCc1c[nH]c2ccccc12" .
Result: inactive

Ask: Tell me the recorded outcome of this test for COc1cccc(C2c3cc4c(cc3OC(N3CCOCC3)C2C)OCO4)c1 (stereo unspecified) .
Result: inactive

Ask: Tell me the recorded outcome of this test for "C=C(CCC/C(C)=C/C=C/[C@@H](C)CCCc1ccoc1)C[C@@H]1OC(=O)[C@H](C)[C@@H]1O" .
Result: inactive

Ask: Tell me the recorded outcome of this test for "CC(C)CCNc1ncnc2[nH]ncc12" .
Result: inactive

Ask: Tell me the recorded outcome of this test for O=C(O)C(C1NCCS1)N1Cc2ccccc2C1 (stereo unspecified) .
Result: inactive
